Item-by-item account of cell viability
- Test system: Mono-Mac-6
- experiment_summary: cell viability (% survival relative to DMSO control, bortezomib = 0%); higher = less cytotoxic
- study_conditions: 1000 nM; 72 h

Worked examples, 5 molecules total:
Form: Entry = CC(C)(C#N)c1cc(Cn2cncn2)cc(C(C)(C)C#N)c1 [Anastrozole] | System = Mono-Mac-6 | cell viability = ____
102%

Next molecule: Cc1ccccc1C(C(=O)NC1CCCCC1)N(C(=O)Cn1ccnc1C)c1cccc(F)c1 (stereo unspecified) [AGI-5198]
104%

Next: O=c1cc(-c2ccccc2)oc2cc(O)c(O)c(O)c12 [Baicalein]
117%

Item: CCCCCCCCCCC[C@@H](C[C@@H]1OC(=O)[C@H]1CCCCCC)OC(=O)[C@H](CC(C)C)NC=O [Orlistat]
103%

// repeat for N#Cc1ccnc(N2C(=O)CC[C@H]2C(=O)N(c2cncc(F)c2)C(C(=O)NC2CC(F)(F)C2)c2ccccc2Cl)c1 (stereo partly specified) [Ivosidenib] and report
90.2%

Continue with the molecule presented below.
Please state recorded cell viability (tested on Mono-Mac-6) of `O=C(O)C[C@@]1(O)C[C@@H](CCCCCCc2ccc(Cl)cc2Cl)OC1=O`
92.8%

Origin of the recorded values: the supplement of paper PMC8671470
